system: Plasmodium berghei; assay: Screen against P. berghei liver stage (PbLuc), transformed with Luciferase, at 2uM; assay type: functional, HepG2; conditions: tested at 2 uM
About 2,700 (4%) of roughly 68,000 compounds showed an effect of 50% or more. The entries come from a sample that favours strong results as a whole.
Listing: INHIBITION of selected molecules
Numbers only here, please. The scale is %.

# input Requested read-out INHIBITION, target or system Plasmodium berghei, entry Cc1cc(C(=O)NCc2cnn(C)c2C)nc(N2CCCCCC2)n1
# output -5.59

Next:
# input Requested read-out INHIBITION, target or system Plasmodium berghei, entry Cn1c(N2CCOCC2)nc2cc(C(=O)N3CC(O)CO3)ccc21 (stereo unspecified)
# output -23.4

# input Requested read-out INHIBITION, target or system Plasmodium berghei, entry CSCC[C@@H](CO)n1ccnc1-c1nccn1C
# output 17.37

# input Requested read-out INHIBITION, target or system Plasmodium berghei, entry CC(C)CC(NC(=O)c1ccn(C)c(=O)c1)c1cccs1 (stereo unspecified)
# output 9.29

# input Requested read-out INHIBITION, target or system Plasmodium berghei, entry CC(=O)N1CCOC(c2cncc(CCC(=O)N(C)C)n2)C1 (stereo unspecified)
# output -26.69

# input Requested read-out INHIBITION, target or system Plasmodium berghei, entry COCCN(C)C(C(=O)O)c1ccc2ccccc2c1 (stereo unspecified)
# output 10.75

# input Requested read-out INHIBITION, target or system Plasmodium berghei, entry COCCN1CCO[C@H]2CCN(C(=O)c3cccs3)CC[C@@H]21
# output 34.19

# input Requested read-out INHIBITION, target or system Plasmodium berghei, entry Cc1cccc(CN2C(=O)C[C@H]3[C@@H]2CCN3Cc2ccccn2)n1
# output -11.91

----------
Listing: INHIBITION of selected compounds
test system: Plasmodium berghei; test: Screen against P. berghei liver stage (PbLuc), transformed with Luciferase, at 2uM; format: functional, HepG2; conditions: tested at 2 uM
About 2,700 (4%) of roughly 68,000 compounds showed an effect of 50% or more. The full list was thinned out, with strong results kept by preference.

Example results:
# input Find the recorded INHIBITION belonging to Cc1nc(CNC(=O)NC2CCCN(c3ncccn3)C2)cs1 (stereo not given) and report it.
# output 30.96%

# input Find the recorded INHIBITION belonging to COC(C)(C)CNC(=O)C1CCC(=O)N(C2CCCC2)C1 (stereo not given) and report it.
# output 8.03%

# input Find the recorded INHIBITION belonging to CN(c1ccc(CNC(=O)c2ccc(O)nc2)cc1)C1CCCCC1 and report it.
# output 51.76%

# input Find the recorded INHIBITION belonging to O=C(NCCN1CCCCC1=O)C1CCC(=O)N(C2CCCC2)C1 (stereo not given) and report it.
# output 54.29%

# input Find the recorded INHIBITION belonging to O=C(NCC(F)(F)F)C1CCC(=O)N(C2CCCC2)C1 (stereo not given) and report it.
# output 9.13%

Next:
# input Find the recorded INHIBITION belonging to Cc1ccc(C(=O)NCc2ccc(N(C)C)cc2)cn1 and report it.
# output 8.73%

# input Find the recorded INHIBITION belonging to CC(C)NC(=O)N1CCOC2(CCCN(c3cccc(C#N)c3)C2)C1 (stereo not given) and report it.
# output 24.82%
